- System: MEF A1-2A-tBid cells, caspase 3/7 luminescence, 3 h
- MEASUREMENT_NOTES: caspase activation in A1/tBid-expressing MEFs, dose response, A1 inhibitor project, cell-based, tBid as inducer, caspase 3/7 luminescence, dry powder (AID 488897)
Records with an inconclusive call do not appear. The source made the active and inactive calls.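 How the source made its calls: active means fitted half-maximal concentration for caspase signal rise at or below the highest valid tested dose; inconclusive means flat fit at 30 to 70% of control, or poor fit; inactive means the rest.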
Classes to choose from: 1 (yes) = active, 0 (no) = inactive

COMPOUND	CAT
COc1cccc(C(=O)C(C#N)=C(SC)SC)c1	1 (yes)
Cc1c(CCOC(=O)c2ccc(N3CCOCC3)c([N+](=O)[O-])c2)sc[n+]1CC#N	1 (yes)
O=C(CCl)N=c1sccn1Cc1ccccc1Cl	1 (yes)
CCc1nnc(NC(=O)c2nc(S(=O)(=O)Cc3ccccc3)ncc2Cl)s1	0 (no)
CC(=O)OC(C)(C)/C=C/C(=O)[C@](C)(O)C1[C@H](O)C[C@@]2(C)C3CC=C4C(C[C@H](O)C(=O)C4(C)C)[C@]3(C)C(=O)C[C@]12C (some centres undefined)	0 (no)
Cc1cccc(NC(=O)/C(C#N)=C/c2cn(CC(=O)NCc3ccco3)c3ccccc23)c1	1 (yes)
C=C1[C@@H](C)[C@H]2[C@H](Cc3ccccc3)NC(=O)[C@]23OC(=O)/C=C\[C@H](O)CCC[C@@H](C)C/C=C/[C@H]3[C@@H]1O	1 (yes)
CCOC(=O)CSC1=N/C(=C/c2ccc(-n3cncn3)cc2)C(=O)N1C(C)=O	1 (yes)

In the following, a different compound is considered.
Exercise: Could you please tell me the result logged for Cc1cc(C(=O)CCl)c(C)n1CCc1ccc(Cl)cc1 in this assay?
Solution: 1 (yes)

====

- Test system: MEF A1-2A-tBid cells, caspase 3/7 luminescence, 3 h
- MEASUREMENT_NOTES: caspase activation in A1/tBid-expressing MEFs, dose response, A1 inhibitor project, cell-based, tBid as inducer, caspase 3/7 luminescence, dry powder (AID 488897)
Inconclusive results are not listed. Calls of active or inactive are those of the source.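 How the source made its calls: active means fitted half-maximal concentration for caspase signal rise at or below the highest valid tested dose; inconclusive means flat fit at 30 to 70% of control, or poor fit; inactive means the rest.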
Here, each record is paired with measured AC50 data.

Previously resolved entries follow.
COMPOUND	MEAS_VALUE
Cc1c(C=O)c(C=O)c(C)n1Cc1ccccc1	6.11 µM
Cc1cccc(CS(=O)(=O)c2ncc(Cl)c(C(=O)Nc3nnc(C(C)C)s3)n2)c1	> 46 µM (inactive)
COc1ccc(N(C(=O)CCl)C(C(=O)NCCc2ccccc2)c2cccs2)cc1Cl (configuration not stated)	> 150 µM (inactive)
Cn1c(=NC(=O)CCl)sc2ccccc21	3.22 µM
Cc1ccc(Sc2c([N+](=O)[O-])c(=O)n(C)c3ccccc23)cc1	18.1 µM
O=C(Oc1cccc(/C=N/Nc2nc(Nc3ccccc3)nc(N3CCOCC3)n2)c1)c1ccco1	17.6 µM

Exercise: Which AC50 is reported for this compound? CC(C)(C)n1nc(-c2ccc(Cl)cc2)c2c(N)ncnc21
Solution: > 150 µM (inactive)

Exercise: Query C/C1=C/C(=O)O[C@@H]2C[C@@H](CC[C@H](C)/C=C\CC1)O[C@@](O)(C1CSC(=O)N1)C2 (some centres not stated) next
Solution: 0.695 µM

Exercise: Query CC(=O)N[C@H]1[C@H](O[C@H]2CC[C@@]3(C)C(CC[C@]4(C)C3CC=C3[C@@H]5CC(C)(C)CC[C@]5(C(=O)OC5OCC(O)C(O)C5O)C(O)C[C@]34C)C2(C)C)O[C@H](COC2OCC(O)C(OC3OCC(O)C(O)C3O)C2O)[C@@H](O[C@@H]2O[C@@H](C)[C@H](O)[C@@H](O)[C@H]2O[C@@H]2O[C@@H](C)[C@H](O)[C@@H](O)[C@H]2O)[C@@H]1O (some centres not stated) next
Solution: 12.2 µM

Exercise: Query CCc1cc2c(=O)c(-c3cnn(-c4ccccc4)c3)c(C)oc2cc1OCC(=O)Nc1cccc(C)c1 next
Solution: > 100 µM (inactive)

Exercise: Query Nc1nc(F)nc2c1ncn2[C@@H]1O[C@H](CO)[C@@H](O)[C@H]1O next
Solution: 2.35 µM

Exercise: Query Cc1ccc(CS(=O)(=O)c2ncc(Cl)c(C(=O)Nc3nnc(C(C)C)s3)n2)cc1 next
Solution: > 46 µM (inactive)
